All values here come from paper PMC4363635.

assay: in vitro; settings: human, Caco-2
Peptide text beside a SMILES is read from it.
quantity.measured: Papp A→B at 120 min, 10 μM (×10⁻⁶ cm/s)
Give just the number in ×10⁻⁶ cm/s; leave the unit off.

# input compound: NC(=O)C[C@H](NC(=O)[C@H](Cc1c[nH]c2ccccc12)NC(=O)[C@@H](N)CC(N)=O)C(=O)O [EDF-analogue, NWN] (H-Asn-Trp-Asn-OH; N-terminus and C-terminus assumed) ; wanted: its Papp A→B at 120 min, 10 μM
0.141
